# Tested on: Radical scavenging activity
# assay remarks: Antioxidant activity assessed as DPPH free radical scavenging activity at 10 uM by spectrophotometric analysis
# Format: functional
measured quantity: Activity
Reply with a number, then the unit it belongs to.

Consider the following items and state reported Activity for each.
1. COc1ccc(OC)c(/C=C/C(=O)c2c(OC)cc(OC)c(Br)c2O)c1
2. COc1cc(OC)c(C(=O)/C=C/c2cccc(Br)c2)c(O)c1Br
3. COc1cc(OC)c(C(=O)/C=C/c2cccc(F)c2)c(O)c1Br

Response:
23%
24.1%
12%

Query: Recorded Activity of COc1cc(OC)c(C(=O)/C=C/c2ccccc2Cl)c(O)c1Br , please.
Response: 15.8%

---

# assay remarks: Antioxidant activity assessed as hydroxyl radical scavenging activity at 10 uM by spectrophotometric analysis
# Assay type: functional
Threshold check on Activity: at or above 40% gives satisfied, strictly below gives not satisfied.

INSERT INTO assay_data (structure_notation, class) VALUES
  ('COc1ccc(/C=C/C(=O)c2c(OC)cc(OC)c(Br)c2O)cc1', 'satisfied'),
  ('COc1cc(OC)c(C(=O)/C=C/c2ccc(Cl)cc2)c(O)c1Br', 'not satisfied'),
  ('COc1ccc(OC)c(/C=C/C(=O)c2c(OC)cc(OC)c(Br)c2O)c1', 'not satisfied'),
  ('COc1cc(OC)c(C(=O)/C=C/c2ccc(Cl)cc2Cl)c(O)c1Br', 'not satisfied'),
  ('COc1cc(OC)c(C(=O)/C=C/c2cccc(Br)c2)c(O)c1Br', 'not satisfied');

Query: Hi, just wondering whether O=C1O[C@H]([C@@H](O)CO)C(O)=C1O shows Activity of 40% or higher.
Response: satisfied

Query: Check if Activity >= 40% (inclusive). Item: COc1cc(OC)c(C(=O)/C=C/c2cccnc2)c(O)c1Br
Response: satisfied

Query: Could you please find out whether COc1cc(/C=C/C(=O)c2c(OC)cc(OC)c(Br)c2O)cc(OC)c1 has Activity that meets 40% or exceeds it?
Response: not satisfied

Query: For this compound, is measured Activity 40% or higher? COc1cc(OC)c(C(=O)/C=C/c2ccccc2C(F)(F)F)c(O)c1Br
Response: satisfied
